Measured binding signal accompanies every entry in the list below.
# subject.of.test: MSI1 full-length (mouse, UniProt Q61474 1-362)
# Sequence (Q61474 whole entry): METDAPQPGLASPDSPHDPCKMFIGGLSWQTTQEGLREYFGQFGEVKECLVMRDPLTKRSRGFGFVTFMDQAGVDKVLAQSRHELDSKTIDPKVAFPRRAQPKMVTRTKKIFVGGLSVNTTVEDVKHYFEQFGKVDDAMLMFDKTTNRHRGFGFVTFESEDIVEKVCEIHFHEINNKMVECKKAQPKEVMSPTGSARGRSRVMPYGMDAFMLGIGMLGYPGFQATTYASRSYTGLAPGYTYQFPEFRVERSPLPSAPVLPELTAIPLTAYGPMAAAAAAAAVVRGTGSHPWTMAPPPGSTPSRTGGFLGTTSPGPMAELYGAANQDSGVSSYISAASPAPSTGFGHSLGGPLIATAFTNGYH
# assay.comment: nsRBNS (natural sequence RNA bind-n-seq); RBNS binding buffer (assumed for nsRBNS): 25 mM Tris pH 7.5, 150 mM KCl, 3 mM MgCl2, 0.01% Triton X-100, 500 ug/ml BSA, 20 U/ml SUPERase-In, 4 C; UNK is unkempt and MSI1 is Musashi-1; names of the RNAs are library labels; protein concentration not given here; high values mean tight binding
Over roughly 5,800 sequences, “enrichment r” has its median near 0.54; the highest 2% begin near 16. This is one part of a sample in which the highest values are shown more often than they occur.
Response body: numeric value in enrichment R, unit text excluded.

binder	binding signal / enrichment R
ENSG00000070961:be:win_2001|CDS|ENSG00000070961|bound_else_gene|NA|bound_elsewhere_windowed (ssRNA) RNA: GGGAGUUCUACAGUCCGACGAUCAAAUGAUAUUGUCACCGGCCUUACAUGCAUUGCUGUUGUGGGGAUUGAAGAUCCUGUGAGACCUGAGGUGCCAGAUGCAAUUAAAAAGUGUCAGAGGGCUGGAAUUACUGUGCGGAUGGUCAACAGAGGAUUGAGCAUCA	0.416

Pending binder:
Answer with the recorded binding signal of ENSG00000136451:be:win_2701|3pUTR|ENSG00000136451|bound_else_gene|NA|bound_elsewhere_windowed (ssRNA) RNA: GGGAGUUCUACAGUCCGACGAUCUGUAAAUAUGGACAUCACUUUUUUUUUCUUUGAGAAAACACUUGUAUCAGCUUUGUGGUGUUUUCAGGGAGACAGCUGUCUGCAUUCCCUGUAGAAACCCAGCAAUGAUUAUGCACGUUGCAACAGAGGAUUGAGCAUCA only.
0.266
